# System: UACC-257
I'd appreciate it if you marked entries TRUE when CC50 is lower than 50 µM and FALSE when it is not.

mol: C=C1C(=O)O[C@H]2[C@H]1CC/C(COC(=O)NCCO)=C\CC[C@@]1(C)O[C@@H]21
class name: FALSE
--
mol: C=C1C(=O)O[C@H]2[C@H]1CC/C(COC(=O)N1CCC(F)(F)CC1)=C\CC[C@@]1(C)O[C@@H]21
class name: TRUE
--
mol: C=C1C(=O)O[C@H]2[C@H]1CC/C(COC(=O)CCC(=O)N1CCC(C)CC1)=C\CC[C@@]1(C)O[C@@H]21
class name: TRUE
--
mol: C=C1C(=O)O[C@H]2[C@H]1CC/C(COC(=O)NC)=C\CC[C@@]1(C)O[C@@H]21
class name: TRUE
--
mol: C=C1C(=O)O[C@H]2[C@H]1CC/C(COC(=O)N1CCN(C)CC1)=C\CC[C@@]1(C)O[C@@H]21
class name: FALSE

---

# Tested on: A549/ATCC
# protocol text: panel of 60 human tumor cell lines, growth inhibition (Non-Small Cell Lung Cancer)
# measurement setup: Homo sapiens, A549

mol: C=C1C(=O)O[C@H]2[C@H]1CC/C(COC(=O)NCCN1CCOCC1)=C\CC[C@@]1(C)O[C@@H]21
GI50: 28.5 µM
--
mol: C=C1C(=O)O[C@H]2[C@H]1CC/C(COC(=O)NCCCCCCO)=C\CC[C@@]1(C)O[C@@H]21
GI50: 17 µM
--
mol: C=C1C(=O)O[C@H]2[C@H]1CC/C(COC(=O)OC)=C\CC[C@@]1(C)O[C@@H]21
GI50: 13.3 µM
--
mol: C=C1C(=O)O[C@H]2[C@H]1CC/C(COC(=O)NCCc1ccccn1)=C\CC[C@@]1(C)O[C@@H]21
GI50: 13.1 µM

---

# System: DU-145
This listing pairs molecules with measured CC50.

mol: C=C1C(=O)O[C@H]2[C@H]1CC/C(COC(=O)N1CCN(C)CC1)=C\CC[C@@]1(C)O[C@@H]21
CC50 (µM): 48.7
--
mol: C=C1C(=O)O[C@H]2[C@H]1CC/C(COC(=O)CCC(=O)N1CCC(C)CC1)=C\CC[C@@]1(C)O[C@@H]21
CC50 (µM): 45.9
--
mol: C=C1C(=O)O[C@H]2[C@H]1CC/C(COC(=O)NCCN1CCCCC1)=C\CC[C@@]1(C)O[C@@H]21
CC50 (µM): 42
--
mol: C=C1C(=O)O[C@H]2[C@H]1CC/C(COC(=O)NCCO)=C\CC[C@@]1(C)O[C@@H]21
CC50 (µM): 52.8
--
mol: C=C1C(=O)O[C@H]2[C@H]1CC/C(COC(=O)N1CCC(F)(F)CC1)=C\CC[C@@]1(C)O[C@@H]21
CC50 (µM): 28.9
--
mol: C=C1C(=O)O[C@H]2[C@H]1CC/C(COC(=O)NC)=C\CC[C@@]1(C)O[C@@H]21
CC50 (µM): 39.3

---

# System: HT29
# protocol text: panel of 60 human tumor cell lines, growth inhibition (Colon Cancer)
# measurement setup: HT29; Log10 Concentration −4.0
This listing pairs compounds with measured Percent Growth.
readout: Percent Growth (%)

mol: C=C1C(=O)O[C@H]2[C@H]1CC/C(COC(=O)OCCN(C)C)=C\CC[C@@]1(C)O[C@@H]21
numeric readout: −29
--
mol: C=C1C(=O)O[C@H]2[C@H]1CC/C(COC(=O)N1CCN(C)CC1)=C\CC[C@@]1(C)O[C@@H]21
numeric readout: −70
--
mol: C=C1C(=O)O[C@H]2[C@H]1CC/C(COC(=O)NCCc1ccccn1)=C\CC[C@@]1(C)O[C@@H]21
numeric readout: −78

---

# Test system: HL-60(TB)
# protocol text: cells
# measurement setup: Homo sapiens, HL-60
This listing pairs compounds with measured GI50.

mol: C=C1C(=O)O[C@H]2[C@H]1CC/C(COC(=O)OC)=C\CC[C@@]1(C)O[C@@H]21
endpoint unit: nM
GI50: 1690

mol: C=C1C(=O)O[C@H]2[C@H]1CC/C(COC(=O)NCCN1CCCC1)=C\CC[C@@]1(C)O[C@@H]21
endpoint unit: nM
GI50: 4150

mol: C=C1C(=O)O[C@H]2[C@H]1CC/C(COC(=O)N1CCC(F)(F)CC1)=C\CC[C@@]1(C)O[C@@H]21
endpoint unit: nM
GI50: 2040

mol: C=C1C(=O)O[C@H]2[C@H]1CC/C(COC(=O)OCCCN1CCCCC1)=C\CC[C@@]1(C)O[C@@H]21
endpoint unit: nM
GI50: 1880

mol: C=C1C(=O)O[C@H]2[C@H]1CC/C(COC(=O)NCCCCCCO)=C\CC[C@@]1(C)O[C@@H]21
endpoint unit: nM
GI50: 3640

---

# Test system: HCT-15
# protocol text: panel of 60 human tumor cell lines, growth inhibition (Colon Cancer)
# measurement setup: HCT-15; Log10 Concentration −8.0

mol: C=C1C(=O)O[C@H]2[C@H]1CC/C(COC(=O)CCC(=O)NCc1ccc(Cl)nc1)=C\CC[C@@]1(C)O[C@@H]21
Percent Growth [%]: 93
--
mol: C=C1C(=O)O[C@H]2[C@H]1CC/C(COC(=O)NCCc1ccccn1)=C\CC[C@@]1(C)O[C@@H]21
Percent Growth [%]: 98
--
mol: C=C1C(=O)O[C@H]2[C@H]1CC/C(COC(=O)NCCO)=C\CC[C@@]1(C)O[C@@H]21
Percent Growth [%]: 93
--
mol: C=C1C(=O)O[C@H]2[C@H]1CC/C(COC(=O)N1CCN(C)CC1)=C\CC[C@@]1(C)O[C@@H]21
Percent Growth [%]: 94

---

# System: HL-60(TB)
# protocol text: cells
# measurement setup: Homo sapiens, HL-60, read-out: LC50
This listing pairs molecules with measured CC50.

molecule: C=C1C(=O)O[C@H]2[C@H]1CC/C(COC(=O)NCCN1CCCC1)=C\CC[C@@]1(C)O[C@@H]21 [JVM 59]
qualifying sign: =
CC50, µM: 70.3

molecule: C=C1C(=O)O[C@H]2[C@H]1CC/C(COC(=O)NCCCCCCO)=C\CC[C@@]1(C)O[C@@H]21 [JVM 2-31]
qualifying sign: >
CC50, µM: 100

molecule: C=C1C(=O)O[C@H]2[C@H]1CC/C(COC(=S)n1ccnc1)=C\CC[C@@]1(C)O[C@@H]21 [JVM 66]
qualifying sign: =
CC50, µM: 69.5

molecule: C=C1C(=O)O[C@H]2[C@H]1CC/C(COC(=O)OC)=C\CC[C@@]1(C)O[C@@H]21 [JVM 2-40]
qualifying sign: =
CC50, µM: 76.3

---

# Test system: MDA-MB-435
# protocol text: panel of 60 human tumor cell lines, growth inhibition (Melanoma)
# measurement setup: MDA-MB-435; Log10 Concentration −5.0

compound: C=C1C(=O)O[C@H]2[C@H]1CC/C(COC(=O)NCCc1ccccn1)=C\CC[C@@]1(C)O[C@@H]21 [JVM 61]
Percent Growth, %: 38
//
compound: C=C1C(=O)O[C@H]2[C@H]1CC/C(COC(=O)CCC(=O)N1CCC(C)CC1)=C\CC[C@@]1(C)O[C@@H]21 [JVM 2-70]
Percent Growth, %: 32
//
compound: C=C1C(=O)O[C@H]2[C@H]1CC/C(COC(=O)NC)=C\CC[C@@]1(C)O[C@@H]21 [JVM 2-57]
Percent Growth, %: 32
//
compound: C=C1C(=O)O[C@H]2[C@H]1CC/C(COC(=O)N1CCN(C)CC1)=C\CC[C@@]1(C)O[C@@H]21 [JVM 2-44]
Percent Growth, %: 44

---

This listing pairs compounds with measured Percent Growth.
# System: NCI-H522
# protocol text: panel of 60 human tumor cell lines, growth inhibition (Non-Small Cell Lung Cancer)
# measurement setup: NCI-H522; Log10 Concentration −5.0
readout: Percent Growth (%)

mol: C=C1C(=O)O[C@H]2[C@H]1CC/C(COC(=O)CCC(=O)NCc1ccc(Cl)nc1)=C\CC[C@@]1(C)O[C@@H]21
measured target: NCI-H522
readout: Percent Growth
numeric readout: −66

mol: C=C1C(=O)O[C@H]2[C@H]1CC/C(COC(=O)NCCc1ccccn1)=C\CC[C@@]1(C)O[C@@H]21
measured target: NCI-H522
readout: Percent Growth
numeric readout: −54

mol: C=C1C(=O)O[C@H]2[C@H]1CC/C(COC(=O)CCC(=O)N1CCC(C)CC1)=C\CC[C@@]1(C)O[C@@H]21
measured target: NCI-H522
readout: Percent Growth
numeric readout: −87

mol: C=C1C(=O)O[C@H]2[C@H]1CC/C(COC(=O)NCCN1CCCCC1)=C\CC[C@@]1(C)O[C@@H]21
measured target: NCI-H522
readout: Percent Growth
numeric readout: −67

---

# Test system: SF-539
# protocol text: panel of 60 human tumor cell lines, growth inhibition (CNS Cancer)
# measurement setup: read-out: LC50; SF-539; NCI five dose
readout: CC50 (µM)

mol: C=C1C(=O)O[C@H]2[C@H]1CC/C(COC(=O)CCC(=O)N1CCC(C)CC1)=C\CC[C@@]1(C)O[C@@H]21
numeric readout: 26.5
